B1: glmS ribozyme (parent)
chain: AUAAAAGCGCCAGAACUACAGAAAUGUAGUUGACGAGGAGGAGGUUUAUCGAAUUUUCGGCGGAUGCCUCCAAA

Variants of: B1
Assay Comment: self-cleavage kobs at 10000 uM GlcN6P; higher = faster cleavage; RNA array
Measurement Setup: with glucosamine-6-phosphate
Variants at the floor of the assay were thinned out.
Kind request: treat 0.0007 s⁻¹ as inclusive, so self-cleavage kobs at 10000 uM GlcN6P at 0.0007 s⁻¹ or higher is class 1, anything lower is class 0.

- Sequence Chain: "AUAAAAGCGCCCGAACUACAGAAAUGUAGUUGACGAGGAGGAGGUUGAUCGAAUUUUCGGCGGAUGCCUCCAAA [A12C U47G]"
  Label Class: "class 1"
- Sequence Chain: "AUAAAAGUGCCAUAUCUACAGAAAUGUAGUUGACGAGGAGGAGGUUUAUUGAAUUUUCGGCGGAUGCCUCCAAA [C8U G13U A15U C50U]"
  Label Class: "class 0"
- Sequence Chain: "AUAAAAGAGCCAGAACUACAGAAAUGUAUUUGACGAGGAGGAGGUUUAUCGAAUUUUCGUCGGAUGCCUCCAAA [C8A G29U G60U]"
  Label Class: "class 0"

(Q) Reported self-cleavage kobs at 10000 uM GlcN6P at or above 0.0007 s⁻¹? AUAAAAGCGCCAGGACUACAGAAAUGUAGUUGACGACGAGGAGGUUUAUCGAAUUUUCGGCGGAUGCCUCCAAA [A14G G37C]
(A) class 0

(Q) Quick check: does AUAAAAGCGCCAGAACUACAGAAAUGUAGUUGACGAGUAGGAGGUUUGUCUAAUUUUCGGCGGAUGCCUCCAAA [G38U A48G G51U] have self-cleavage kobs at 10000 uM GlcN6P greater than or equal to 0.0007 s⁻¹?
(A) class 0

(Q) State whether the measured self-cleavage kobs at 10000 uM GlcN6P reaches 0.0007 s⁻¹, counting equality as reaching it, for AUAAAAGCGCCAGAACUACAGAAAUGUAGUCGACGAGGAGGAGGUUCAUCGAAUUUUCGGCGGAUGCCUUCAAA [U31C U47C C70U]
(A) class 0

(Q) Has AUAAAAGCGCCAGAACUACAGAAAUGUAGUUGACGAGGAGGAGGUUUAUCGAUUCUUCGGCGGAAGCCUCCAAA [A53U U55C U65A] a recorded self-cleavage kobs at 10000 uM GlcN6P greater than or equal to 0.0007 s⁻¹?
(A) class 1

(Q) In plain terms: is recorded self-cleavage kobs at 10000 uM GlcN6P at least 0.0007 s⁻¹ for AUAAAAGCGCCAGAACUACAGAAAUGUAGUUGACGAGGAGGAGGUUUAUCGAAUUGUCGGCGGAUGCCUCGAAA [U56G C71G] ?
(A) class 1

(Q) Does AUAAAAGCGUCAAAACUACAGAAAUGUAGUUGACGAGGAUGAGGUUUAUCGAAUUUUCGGCGGAUGCCUCCAAA [C10U G13A G40U] have a reported self-cleavage kobs at 10000 uM GlcN6P of at least 0.0007 s⁻¹?
(A) class 0
